Experiment: In vitro cytotoxicity with L-6 cells (Alamar Blue)
Type: cell-based, rat
Details: rat, Cytotoxicity L-6 Cells IC50
Experimental: All newly synthesized compounds were tested for their antiplasmodial activity against the chloroquine-sensitive strain Plasmodium falciparum NF54. Cytotoxicity was determined using rat skeletal myofibroblasts (L-6 cells). As standards chloroquine and podophyllotoxin were used. In vitro cytotoxicity was determined using a primary cell line of rat skeletal myofibroblasts. […]
Mark 1 for IC50 at 72 h under 70 µM, 0 if at or over.

{"Compound": "CC(C)(C)OC(=O)N1CCN(c2ccccc2NC(=O)c2cccc(C(F)(F)F)c2Oc2ccc(F)cc2)CC1 [Compound 1]", "Group label": 0}
{"Compound": "CN(C)C(=O)N1CCN(c2ccccc2NC(=O)c2cccc(C(F)(F)F)c2Oc2ccc(F)cc2)CC1 [Compound 22]", "Group label": 1}
{"Compound": "Nc1cccc(NC(=O)c2cccc(C(F)(F)F)c2Oc2ccc(F)cc2)c1 [Compound 50]", "Group label": 0}
{"Compound": "CC(C)(C)N1CCN(c2ccccc2NC(=O)c2cccc(C(F)(F)F)c2Oc2ccc(F)cc2)CC1 [Compound 20]", "Group label": 1}
{"Compound": "CC(=O)N1CCN(c2ccccc2NC(=O)c2cccc(C(F)(F)F)c2Oc2ccc(F)cc2)CC1 [Compound 17]", "Group label": 1}
{"Compound": "CC(C)(C)OC(=O)N1CCN(c2ccc(NC(=O)c3cccc(C(F)(F)F)c3Oc3ccccc3)cc2)CC1 [Compound 54]", "Group label": 0}
{"Compound": "Nc1ccc(NC(=O)c2cccc(C(F)(F)F)c2Oc2ccc(F)cc2)cc1 [Compound 51]", "Group label": 0}
{"Compound": "CC(C)(C)OC(=O)N1CCN(c2ccccc2NC(=O)c2cccc(C(F)(F)F)c2)CC1 [Compound 7]", "Group label": 0}
{"Compound": "CC(=O)Nc1ccc(Oc2c(C(=O)Nc3ccccc3N3CCN(C(=O)OC(C)(C)C)CC3)cccc2C(F)(F)F)cc1 [Compound 8]", "Group label": 0}
{"Compound": "CC(C)(C)C(=O)N1CCN(c2ccc(NC(=O)c3cccc(C(F)(F)F)c3Oc3ccccc3)cc2)CC1 [Compound 55]", "Group label": 0}
{"Compound": "CC(C)(C)OC(=O)N1CCN(c2ccc(NC(=O)c3cccc(C(F)(F)F)c3Oc3ccc(F)cc3)cc2)CC1 [Compound 37]", "Group label": 0}
{"Compound": "CC(C)(C)OC(=O)N1CCN(c2cccc(NC(=O)c3cccc(C(F)(F)F)c3Oc3ccc(F)cc3)c2)CC1 [Compound 36]", "Group label": 0}
{"Compound": "Nc1ccccc1NC(=O)c1cccc(C(F)(F)F)c1Oc1ccc(F)cc1 [Compound 14]", "Group label": 0}
